Target: T1, human Siglec-5 expressed on human primary cells (human, UniProt O15389 17-551)
T1 construct: Endogenous receptor on human primary monocytes, dendritic cells, macrophages and neutrophils; also called CD170
T1 sequence: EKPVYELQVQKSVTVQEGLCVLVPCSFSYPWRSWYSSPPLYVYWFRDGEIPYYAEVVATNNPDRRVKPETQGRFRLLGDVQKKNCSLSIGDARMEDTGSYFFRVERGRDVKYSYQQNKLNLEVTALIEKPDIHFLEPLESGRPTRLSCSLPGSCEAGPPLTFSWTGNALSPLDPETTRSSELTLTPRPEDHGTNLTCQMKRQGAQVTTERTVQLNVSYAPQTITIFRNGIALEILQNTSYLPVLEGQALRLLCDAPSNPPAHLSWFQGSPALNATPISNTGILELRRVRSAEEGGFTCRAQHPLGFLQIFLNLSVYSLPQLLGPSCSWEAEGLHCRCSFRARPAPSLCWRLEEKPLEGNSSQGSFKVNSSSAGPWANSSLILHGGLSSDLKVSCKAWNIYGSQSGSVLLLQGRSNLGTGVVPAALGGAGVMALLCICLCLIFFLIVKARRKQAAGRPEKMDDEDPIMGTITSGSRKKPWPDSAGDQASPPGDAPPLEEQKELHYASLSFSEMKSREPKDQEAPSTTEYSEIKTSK
Assay: flow cytometry, human primary neutrophils, 10 ug/ml mAb
Could you mark each record y if its MFI falls strictly under 300, and n if it equals or exceeds it?

{"columns": ["binder", "category.label"],
 "data": [
  ["anti-Siglec-5 monoclonal antibody 8C3 (antibody, IgG1, V domains shown) VH: QVQLQQSGGGLVKPGTSVKLSCKASGYIFTEYIIHWVKQRSGQGLEWIGWFYPGIISIKYNEKFKDKATLTADKSSSTVYMELSRLTSEDSAVYFCAGHEGYDGAMDYWGQGTSVTVSS VL: DVLMTQTPLSLPVSLGDQASISCRCSQSIVHSNGNTYLEWYLQKPGQSPKLLIYRVSNRFSGVPDRFSGSGSGTDFTLKISRVEAEDLGVYYCFQGSHVPWTFGGGTKLEIK", "n"],
  ["anti-Siglec-5 monoclonal antibody 7A5 (antibody, IgG1, V domains shown) VH: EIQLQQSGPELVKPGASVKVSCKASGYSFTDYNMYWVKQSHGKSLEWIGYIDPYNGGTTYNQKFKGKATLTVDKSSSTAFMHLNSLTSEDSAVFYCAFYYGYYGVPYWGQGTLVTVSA VL: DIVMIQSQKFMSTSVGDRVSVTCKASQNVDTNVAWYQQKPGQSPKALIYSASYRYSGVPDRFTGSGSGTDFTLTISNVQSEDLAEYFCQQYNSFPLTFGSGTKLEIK", "y"],
  ["anti-Siglec-5 monoclonal antibody 10F9 (antibody, IgG1, V domains shown) VH: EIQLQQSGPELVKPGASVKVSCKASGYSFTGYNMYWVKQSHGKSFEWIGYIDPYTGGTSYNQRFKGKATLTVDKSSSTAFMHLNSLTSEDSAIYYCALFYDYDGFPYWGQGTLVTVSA VL: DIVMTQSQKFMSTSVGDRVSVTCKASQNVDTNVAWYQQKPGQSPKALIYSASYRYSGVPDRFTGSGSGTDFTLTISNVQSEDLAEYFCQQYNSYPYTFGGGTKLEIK", "n"],
  ["anti-Siglec-5 monoclonal antibody 2G5 (antibody, IgG1, V domains shown) VH: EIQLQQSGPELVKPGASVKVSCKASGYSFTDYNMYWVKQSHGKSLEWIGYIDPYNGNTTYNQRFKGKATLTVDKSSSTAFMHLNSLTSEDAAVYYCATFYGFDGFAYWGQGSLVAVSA VL: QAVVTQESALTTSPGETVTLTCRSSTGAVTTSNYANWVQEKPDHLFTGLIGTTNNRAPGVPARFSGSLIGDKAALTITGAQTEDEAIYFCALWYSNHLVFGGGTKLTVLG", "y"],
  ["anti-Siglec-5 monoclonal antibody 10B6 (antibody, IgG1, V domains shown) VH: EIQLQQSGPELVKPGASVKVSCKASGYSFTDYNMYWVKQSHGKSLECFGYIDPYNGGPYYNQKFKGKATLTVDKSSSTAFMHLNSLTSEDSAVYYCAFYYGYYGVPYWGQGTLVTVSA VL: DIVMTQSQKFMSTSVGDRVSVTCKASHNVGTSVAWYQQKPGQSPKSLIYSASYRYSGVPDRFTGSGSGTDFTLTISNVQSEDLAEYFCQQYNSYPLTFGSGTKLEIK", "y"],
  ["anti-Siglec-5 monoclonal antibody 9A5 (antibody, IgG1, V domains shown) VH: QVQLQQSGPELVEPGASVKVSCKASGYAFTSYNMYWVKQSHGKSLEWIGYIDPYNGGTYYDQKFKGRATLTVDKSSSTAHMHLNSLTSEDSAVYYCVFFYEYDGFPYWGQGTLVTVSA VL: DIVLTQSPTLMSASPGEKVTMTCSASSSVSYMYWYQQKPRSSPKPLIYLTSNLASGVPARFSGSGSGTSYSLTISSMEAEDAATYYCQQWSSNPLTFGAGTKLELK", "n"]
]}
